Assign Dmax to each entry below.
- measured_target: NEK7 (Homo sapiens (Human), UniProt Q8TDX7+Q96SW2)
- Sequence (Q8TDX7 whole entry): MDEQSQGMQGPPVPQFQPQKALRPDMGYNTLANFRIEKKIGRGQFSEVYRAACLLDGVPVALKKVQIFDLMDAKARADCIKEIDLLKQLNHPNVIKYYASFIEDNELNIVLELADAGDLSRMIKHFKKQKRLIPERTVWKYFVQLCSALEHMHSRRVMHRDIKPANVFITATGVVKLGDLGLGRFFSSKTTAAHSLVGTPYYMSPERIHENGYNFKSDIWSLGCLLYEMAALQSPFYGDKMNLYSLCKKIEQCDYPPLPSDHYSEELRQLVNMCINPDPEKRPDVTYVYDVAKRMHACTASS
- Sequence (Q96SW2 whole entry): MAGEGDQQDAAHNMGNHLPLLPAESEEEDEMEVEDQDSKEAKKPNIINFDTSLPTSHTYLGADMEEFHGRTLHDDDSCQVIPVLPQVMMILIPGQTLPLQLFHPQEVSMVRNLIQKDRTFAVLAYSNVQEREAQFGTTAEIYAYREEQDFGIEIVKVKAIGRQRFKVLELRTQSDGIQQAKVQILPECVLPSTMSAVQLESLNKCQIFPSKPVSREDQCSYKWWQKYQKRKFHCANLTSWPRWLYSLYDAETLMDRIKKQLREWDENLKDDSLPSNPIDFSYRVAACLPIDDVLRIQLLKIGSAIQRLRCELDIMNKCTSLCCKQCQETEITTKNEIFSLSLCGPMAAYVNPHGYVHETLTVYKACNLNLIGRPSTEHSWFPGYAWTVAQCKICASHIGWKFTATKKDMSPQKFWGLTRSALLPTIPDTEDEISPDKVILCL
- Sequence (Q16531 2-1140 partner): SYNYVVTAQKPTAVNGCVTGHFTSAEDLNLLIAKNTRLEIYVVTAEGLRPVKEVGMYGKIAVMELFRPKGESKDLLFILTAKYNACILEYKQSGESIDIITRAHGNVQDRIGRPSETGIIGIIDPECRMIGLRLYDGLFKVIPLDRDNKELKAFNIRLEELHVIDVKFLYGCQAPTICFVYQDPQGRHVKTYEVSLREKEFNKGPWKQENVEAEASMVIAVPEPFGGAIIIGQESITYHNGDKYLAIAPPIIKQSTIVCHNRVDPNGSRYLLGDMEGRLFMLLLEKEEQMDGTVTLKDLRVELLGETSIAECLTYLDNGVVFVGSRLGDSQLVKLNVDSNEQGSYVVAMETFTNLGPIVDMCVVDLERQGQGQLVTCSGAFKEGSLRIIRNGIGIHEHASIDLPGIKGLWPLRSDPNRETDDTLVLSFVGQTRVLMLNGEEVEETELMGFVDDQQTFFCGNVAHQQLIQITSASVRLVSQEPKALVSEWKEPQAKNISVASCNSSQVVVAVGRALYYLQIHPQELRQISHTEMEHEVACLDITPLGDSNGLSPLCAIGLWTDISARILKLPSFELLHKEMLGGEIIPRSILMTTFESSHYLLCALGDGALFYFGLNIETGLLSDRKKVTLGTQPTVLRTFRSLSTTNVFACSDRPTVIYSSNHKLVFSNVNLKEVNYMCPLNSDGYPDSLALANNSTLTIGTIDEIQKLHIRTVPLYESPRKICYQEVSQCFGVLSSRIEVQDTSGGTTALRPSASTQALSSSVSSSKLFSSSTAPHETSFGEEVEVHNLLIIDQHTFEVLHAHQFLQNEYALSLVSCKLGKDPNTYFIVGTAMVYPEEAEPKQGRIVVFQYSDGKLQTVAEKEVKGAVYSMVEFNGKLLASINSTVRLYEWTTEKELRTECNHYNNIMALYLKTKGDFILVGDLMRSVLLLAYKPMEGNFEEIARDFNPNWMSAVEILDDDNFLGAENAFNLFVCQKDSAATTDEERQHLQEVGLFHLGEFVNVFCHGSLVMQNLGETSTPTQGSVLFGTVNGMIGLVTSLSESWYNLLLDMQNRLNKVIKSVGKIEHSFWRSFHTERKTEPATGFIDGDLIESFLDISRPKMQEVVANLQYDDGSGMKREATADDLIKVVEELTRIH
- method_notes: NEK7 NanoBiT degradation assay in Cal51 NEK7 NanoBiT cell line
- Assay type: cell-based
- applied_conditions: CAL-51; NEK7 degradation, Cal51 NEK7 NanoBiT cells, 24 hours; read-out: NanoBiT Dmax

Below are worked cases with known answers.
Cc1conc1C(C)(C)C(=O)NCc1cc(F)c(C2CCC(=O)NC2=O)c(Cl)c1 (stereo not shown) : 50 to 75%
CC(C)(C(=O)NCc1cc(Cl)c([C@@]2(F)CCC(=O)NC2=O)c(Cl)c1)c1ccccc1 (single isomer, unassigned) : ≤ 50%
Cc1nc(C(C)(C)C(=O)NCc2cc(Cl)c(C3CCC(=O)NC3=O)c(Cl)c2)oc1C (stereo not shown) : > 75%
CC(C)(C(=O)NCc1cc(Cl)c(C2CCC(=O)NC2=O)c(Cl)c1)c1ccnc(F)c1 (stereo not shown) : > 75%
O=C1CCC(c2c(Cl)cc(CNC(=O)C3(c4ccnc(F)c4)CC(F)(F)C3)cc2Cl)C(=O)N1 (stereo not shown) : 50 to 75%
CC(C)(O)c1cnc(C(C)(C)C(=O)NCc2cc(Cl)c(C3CCC(=O)NC3=O)c(Cl)c2)nc1 (stereo not shown) : 50 to 75%

Would you kindly look at the next entry?
Record CC(C)(C(=O)NCc1ccc(C2CCC(=O)NC2=O)c(Cl)c1)c1cccc(C#N)c1 (stereo not shown) . Reported Dmax: 50 to 75%
